tested on: Wolbachia pipientis; experiment: Anti-Wolbachia Cell-Based Screen; format: functional; design: scale not given: in the data most compounds retested in dose-response had high values; settings: 5 µM
About 13,000 (27%) of roughly 48,000 compounds showed an effect of 50% or more. This is one part of the list.
Percent Effect values, listed per item
Write the answer as a number in %, unit excluded.

Below: 4 compounds and their reported Percent Effect.
Compound: Cc1noc(C)c1C(C)NC(=O)N1CCCN(C(=O)c2ccsc2)CC1 (stereo unspecified)
Target Or System: Wolbachia pipientis
Percent Effect (%): 6.672

Compound: Cc1noc(C)c1C(=O)N1CC[C@H]2C[C@@H](c3nccs3)O[C@@H]2C1
Target Or System: Wolbachia pipientis
Percent Effect (%): -4.112

Compound: Cc1ccc(C)c(CN2CCCn3nc(CNS(C)(=O)=O)cc3C2)c1
Target Or System: Wolbachia pipientis
Percent Effect (%): -10.08

Compound: COCCN1CC[C@@H]2O[C@H](COCc3csc(C)n3)CC[C@@H]21.O=C(O)C(F)(F)F
Target Or System: Wolbachia pipientis
Percent Effect (%): 5.526

Query :: Test system Wolbachia pipientis; read-out Percent Effect; what value for `Cc1noc(C)c1C(=O)N1CCCN(C)c2ccc(Cl)cc21` ?
Result :: 90.03

Query :: Same thing, different compound: `O=C(O)C(F)(F)F.O=C([C@@H]1C[C@H]2[C@H](CCN2Cc2nccs2)O1)N1CCOCC1`
Result :: -8.158

Query :: Same thing, different compound: `Cc1noc(C)c1CC(=O)N1CCCN(C)c2ccc(Cl)cc21`
Result :: 108.2
